target: chimeric BTLA of humanised-BTLA mice (human extracellular region, murine transmembrane and signaling … (human; mouse, UniProt Q7TSA3 184-306, limits assumed)
Sequence (Q7TSA3 other isoform, or with tags, fused parts or gaps mutant limits assumed): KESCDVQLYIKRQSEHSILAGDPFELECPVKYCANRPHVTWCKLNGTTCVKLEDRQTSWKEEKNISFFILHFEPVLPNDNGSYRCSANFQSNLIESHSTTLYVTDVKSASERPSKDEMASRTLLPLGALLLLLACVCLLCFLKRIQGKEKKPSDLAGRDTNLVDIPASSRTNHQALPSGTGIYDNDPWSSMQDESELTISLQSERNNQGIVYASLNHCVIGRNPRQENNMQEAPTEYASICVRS
assay_protocol: cell-based or functional assay
attribute_measured: MLR (CD4 T cell proliferation) repeat 1, % inhibition (%)
Give a bare numeral; the unit % is implied.

MLR (CD4 T cell proliferation) repeat 1, % inhibition for 7A1 (antibody, IgG1, V domains shown) VH: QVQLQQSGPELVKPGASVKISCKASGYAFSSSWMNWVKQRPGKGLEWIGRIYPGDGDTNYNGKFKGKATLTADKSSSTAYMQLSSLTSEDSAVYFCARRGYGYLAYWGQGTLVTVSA VL: DIVMTQSHKFMSTSVGDRVSITCKASQDVSTAVAWYQQKPGQSPKLLIYSASYRYTGVPDRFTGSGSGTDFTFTISSVQAEDLAVYYCQQHYSTPWTFGGGTKLEIK ?
23

MLR (CD4 T cell proliferation) repeat 1, % inhibition for 21C7 (antibody, IgG1, V domains shown) VH: QIQLQQSGPELVKPGASVKISCKASGYAFSSSWMNWVKKRPGKGLEWIGRIYPGDGDANYNGKFKGKATLTADKSSSTAYMQLSSLTSEDSAVYFCAGEGHYYGSGYRWYLDVWGTGTTVTVSS VL: DIQMTQSPASLSVSVGETVTITCRASENIYSNLAWYQQKQGKSPQLLVYAATNLADGVPSRFSGSGSGTQYSLKINSLQSEDFGSYYCQHFRGAPFTFGSGTKLEIK ?
8

MLR (CD4 T cell proliferation) repeat 1, % inhibition for 16H2 (antibody, IgG1, V domains shown) VH: EVQLQQSGPELVQPGASVKISCKASGYTFTDYYMIWVKQSHGKSLEWIGNINPNNGGTTYNQKFKGKATLTVDKSSSTAYMGLPSLTSEDSAVYYCARGGLRPLYFDYWGQGTTLTVSS VL: NIVMTQSPKSMSMSVGERVTLSCKASENVDTYVSWYQQKPEQSPKLLIYGASNRYTGVPDRFTGSGSATDFTLTISSVQAEDLADYHCGQSYSYPLTFGAGTKLELI ?
40
